// provenance: patent WO2019054460A1

Biological target: RAMP2 expressed on the cell surface of HUVEC (human umbilical vein endothelial cells) (human, UniProt O60895 43-175)
Sequence (O60895 43-175): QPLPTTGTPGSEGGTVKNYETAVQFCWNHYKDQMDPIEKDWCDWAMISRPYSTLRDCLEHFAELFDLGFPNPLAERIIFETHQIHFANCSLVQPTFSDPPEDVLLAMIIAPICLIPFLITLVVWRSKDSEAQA
Assay: cell-based or functional assay
A collection of binders and their measured HUVEC growth inhibition rate (IC50)
ENDPOINT LABEL: HUVEC growth inhibition rate (IC50) (nM)

1. h85H7-2B11v1 (antibody, V domains shown) VH: EVQLVQSGPEVVKPGASVKMSCKASGYSFSGYFMNWVKQAHGQSLEWIGRINPYNGDTFYNQKFKGKATLTVDKSTSTTYMELSSLRSEDTALYYCARLGIYDVYHYVMENWGQGTTVTVSS VL: DIQMTQSTSSLSASLGDRVTITCRASQDIRNYLNWYQQKPGKTVKLLIYYTSRLHSGVPSRFSGSGSGTDYTLTISSLQQEDIATYFCQQDSKNPWTFGQGTKLEIK : 5.1
2. h85H7-2B11v2 (antibody, V domains shown) VH: QVQLVQSGAEVKKPGASVKMSCKASGYSFSGYFMNWVKQAPGQGLEWIGRINPYNGDTFYNQKFKGRATLTVDTSTSTTYMELSSLRSEDTALYYCARLGIYDVYHYVMENWGQGTTVTVSS VL: DIQMTQSTSSLSASLGDRVTITCRASQDIRNYLNWYQQKPGKTVKLLIYYTSRLHSGVPSRFSGSGSGTDYTLTISSLQQEDIATYFCQQDSKNPWTFGQGTKLEIK : 9.5
3. h25H4-4F9v1 (antibody, V domains shown) VH: EVQLVQSGPEVVKPGATVKISCKASGYSFTGYFMNWVKQAQGKSLESIGRNNPYNGDSIYNQKFKGKATLTVDKSTNTAYMELSSLRSEDTAVYYCARLMIFDAYYAMDYWGQGTTVTVSS VL: DIQMTQSTSSLSASLGDRVTITCRASQDIRNYLNWYQQKPGKTVKLLIYYTSRLHSGVPSRFSGSGSGTDYTLTISSLQQEDIATYFCQQDSKHPWTFGQGTKLEIK : 16
4. h85H7-2B11v3 (antibody, V domains shown) VH: QVQLVQSGAEVKKPGASVKMSCKASGYSFSGYFMNWVKQAPGQGLEWIGRINPYNGDTFYNQKFKGRATLTVDTSTSTTYMELSSLRSEDTALYYCARLGIYDVYHYVMENWGQGTTVTVSS VL: DIQMTQSPSSLSASVGDRVTITCRASQDIRNYLNWYQQKPGKAVKLLIYYTSRLHSGVPSRFSGSGSGTDYTLTISSLQPEDIATYFCQQDSKNPWTFGQGTKLEIK : 1.5
5. h25H4-4F9v2 (antibody, V domains shown) VH: EVQLVQSGAEVKKPGATVKISCKASGYSFTGYFMNWVKQAPGKGLESIGRNNPYNGDSIYNQKFKGRATLTVDTSTDTAYMELSSLRSEDTAVYYCARLMIFDAYYAMDYWGQGTTVTVSS VL: DIQMTQSTSSLSASLGDRVTITCRASQDIRNYLNWYQQKPGKTVKLLIYYTSRLHSGVPSRFSGSGSGTDYTLTISSLQQEDIATYFCQQDSKHPWTFGQGTKLEIK : 10.9
